For each of the molecules below, state its IC50.
tested on: Hep3B; test: High-throughput calcein AM cytotoxicity assay, Hep3B; format: cell-based, human; conditions: Hep 3B cells; read-out: IC50

Illustrative cases are given below, each with its answer.
MOLECULE | IC50
CON(C1CCC2(C)C(CCC3C2CCC2(C)C(C4=CC(=O)OC4)CCC32O)C1)C1OC(C(=O)O)C(O)C(O)C1O [38α, D-galacturonoside] | > 25 µM
CON(C1CCC2(C)C(CCC3C2CCC2(C)C(C4=CC(=O)OC4)CCC32O)C1)C1OC(CO)C(O)C(O)C1NC(C)=O [34α, N-acetyl-D-galactosaminoside] | > 25 µM

# returns recorded IC50 (system: Hep3B) for CON([C@@H]1CC[C@@]2(C)[C@H](CC[C@@H]3[C@@H]2CC[C@]2(C)[C@@H](C4=CC(=O)OC4)CC[C@]32O)C1)[C@@H]1O[C@H](CO)[C@@H](O)[C@H](O)[C@H]1O [4α, D-glucoside]
> 25 µM

---

test system: MCF7; experiment: High-throughput calcein AM cytotoxicity assay, MCF7; type: cell-based, human; conditions: MCF7 cells; read-out: IC50, MCF7
REPORTED PROPERTY: IC50 (µM)
Numbers only, in µM.

MOLECULE | IC50 / µM
CON([C@H]1CC[C@@]2(C)[C@H](CC[C@@H]3[C@@H]2CC[C@]2(C)[C@@H](C4=CC(=O)OC4)CC[C@]32O)C1)[C@@H]1O[C@H](C)[C@H](O)[C@H](O)[C@H]1O [8β, D-fucoside] | 11
CON([C@H]1CC[C@@]2(C)[C@H](CC[C@@H]3[C@@H]2CC[C@]2(C)[C@@H](C4=CC(=O)OC4)CC[C@]32O)C1)[C@@H]1O[C@H](CO)[C@@H](O)[C@@H](O)[C@@H]1O [20β, D-altroside] | 1.5
CON([C@H]1CC[C@@]2(C)[C@H](CC[C@@H]3[C@@H]2CC[C@]2(C)[C@@H](C4=CC(=O)OC4)CC[C@]32O)C1)[C@H]1OC[C@H](O)[C@H](O)[C@H]1O [32β, L-arabinoside] | 2.2

Kindly give each listed record's IC50.
1. CON([C@H]1CC[C@@]2(C)[C@H](CC[C@@H]3[C@@H]2CC[C@]2(C)[C@@H](C4=CC(=O)OC4)CC[C@]32O)C1)[C@H]1OC[C@H](O)[C@@H](O)[C@@H]1O [23β, L-xyloside]
2. CON([C@H]1CC[C@@]2(C)[C@H](CC[C@@H]3[C@@H]2CC[C@]2(C)[C@@H](C4=CC(=O)OC4)CC[C@]32O)C1)[C@@H]1OC[C@@H](O)[C@H](O)[C@H]1O [24β, D-xyloside]

[0.23, 1.8]

---

biological target: Na+/K+-ATPase (Cricetulus griseus); assay: Non-radioactive rubidium ion uptake assay, CHO-K1 cells; conditions: read-out: Na+/K+-ATPase Inhibition IC50
REPORTED PROPERTY: pIC50
Give bare numbers, as −log10 of the molar value.

COMPOUND | pIC50
CON([C@H]1CC[C@@]2(C)[C@H](CC[C@@H]3[C@@H]2CC[C@]2(C)[C@@H](C4=CC(=O)OC4)CC[C@]32O)C1)[C@H]1OC[C@H](O)[C@H](O)[C@@H]1O [5β, L-riboside] | 3.57

# returns recorded pIC50 (system: Na+/K+-ATPase (Cricetulus griseus)) for CON(C1CCC2(C)C(CCC3C2CCC2(C)C(C4=CC(=O)OC4)CCC32O)C1)C1OC(CO)C(O)C(O)C1O [40β, D-taloside]
3.74

---

Tested on: MCF7
Test: High-throughput calcein AM cytotoxicity assay, MCF7
Format: cell-based, human
Details: MCF7 cells; read-out: IC50, MCF7
Source text: Standard errors are depicted with error bars.
REPORTED PROPERTY: pIC50
One number for each entry, as −log10 of the molar value.

MOLECULE | OBSERVED RESULT
CON([C@H]1CC[C@@]2(C)[C@H](CC[C@@H]3[C@@H]2CC[C@]2(C)[C@@H](C4=CC(=O)OC4)CC[C@]32O)C1)[C@H]1C[C@@H](O)[C@@H](O)[C@@H](CO)O1 [9β, 2-deoxy-D-galactoside] | 5.29
CON(C1CCC2(C)C(CCC3C2CCC2(C)C(C4=CC(=O)OC4)CCC32O)C1)C1OC(CO)C(O)C(O)C1O [42β, L-glucoside] | 6.22
CON(C1CCC2(C)C(CCC3C2CCC2(C)C(C4=CC(=O)OC4)CCC32O)C1)C1OC(C(=O)O)C(O)C(O)C1O [38β, D-galacturonoside] | 5.30
CON([C@H]1CC[C@@]2(C)[C@H](CC[C@@H]3[C@@H]2CC[C@]2(C)[C@@H](C4=CC(=O)OC4)CC[C@]32O)C1)[C@H]1O[C@@H](CO)[C@H](O)[C@H](O)[C@H]1O [19β, L-altroside] | 5.89

// next entry
Data request, read-out pIC50, for CONC1CC[C@]2(C)C3CC[C@]4(C)[C@@H](C5=CC(=O)OC5)CC[C@]4(O)C3CC[C@@H]2C1 (stereo partly drawn) [3α, S—C(3) aglycon]
4.89

---

test system: NmuMG; test: cells; assay type: cell-based, mouse; details: NmuMG mouse mammary normal epithelial control line; read-out: IC50, NmuMG
Binary label based on IC50 with cut-off 60 nM: below gives Met, not below gives Not met.

Reference set (10 entries):
COMPOUND | TARGET DESC | LABEL VALUE
CON(C1CCC2(C)C(CCC3C2CCC2(C)C(C4=CC(=O)OC4)CCC32O)C1)C1OC(C)C(O)C(O)C1O [7α, L-fucoside] | NmuMG | Not met
CON(C1CCC2(C)C(CCC3C2CCC2(C)C(C4=CC(=O)OC4)CCC32O)C1)C1OC(C)C(O)C(O)C1O [8α, D-fucoside] | NmuMG | Not met
CON([C@H]1CC[C@@]2(C)[C@H](CC[C@@H]3[C@@H]2CC[C@]2(C)[C@@H](C4=CC(=O)OC4)CC[C@]32O)C1)[C@@H]1O[C@H](CO)[C@@H](O)[C@H](O)[C@@H]1O [27β, D-mannoside] | NmuMG | Not met
CON(C1CCC2(C)C(CCC3C2CCC2(C)C(C4=CC(=O)OC4)CCC32O)C1)C1OCC(O)C(O)C1O [6α, D-riboside] | NmuMG | Not met
CON(C1CCC2(C)C(CCC3C2CCC2(C)C(C4=CC(=O)OC4)CCC32O)C1)C1OC(CO)C(O)C(O)C1O [40β, D-taloside] | NmuMG | Not met
CON([C@H]1CC[C@@]2(C)[C@H](CC[C@@H]3[C@@H]2CC[C@]2(C)[C@@H](C4=CC(=O)OC4)CC[C@]32O)C1)[C@@H]1O[C@H](CO)[C@@H](O)[C@H](O)[C@H]1F [12β, 2-deoxy-2-fluoro-D-glucoside] | NmuMG | Not met
CON(C1CCC2(C)C(CCC3C2CCC2(C)C(C4=CC(=O)OC4)CCC32O)C1)C1OC(CO)C(O)C(O)C1O [17α, L-alloside] | NmuMG | Not met
CON(C1CCC2(C)C(CCC3C2CCC2(C)C(C4=CC(=O)OC4)CCC32O)C1)C1OC(C(=O)O)C(O)C(O)C1O [38β, D-galacturonoside] | NmuMG | Not met
CON([C@H]1CC[C@@]2(C)[C@H](CC[C@@H]3[C@@H]2CC[C@]2(C)[C@@H](C4=CC(=O)OC4)CC[C@]32O)C1)[C@H]1OC[C@H](O)[C@H](O)[C@@H]1O [5β, L-riboside] | NmuMG | Met
CON([C@H]1CC[C@@]2(C)[C@H](CC[C@@H]3[C@@H]2CC[C@]2(C)[C@@H](C4=CC(=O)OC4)CC[C@]32O)C1)[C@H]1OC[C@H](O)[C@@H](O)[C@@H]1O [23β, L-xyloside] | NmuMG | Met

Lab note: IC50 threshold 60 nM. Does this compound come in strictly under it? CON(C1CCC2(C)C(CCC3C2CCC2(C)C(C4=CC(=O)OC4)CCC32O)C1)C1OC(CO)C(O)CC1O [10α, 3-deoxy-D-glucoside]
Not met

Lab note: IC50 threshold 60 nM. Does this compound come in strictly under it? CON([C@H]1CC[C@@]2(C)[C@H](CC[C@@H]3[C@@H]2CC[C@]2(C)[C@@H](C4=CC(=O)OC4)CC[C@]32O)C1)[C@H]1O[C@@H](CO)[C@H](O)[C@H](O)[C@@H]1O [17β, L-alloside]
Not met

---

For each of the compounds below, state its IC50.
test system: NCI/ADR-RES; experiment: cells; type: cell-based, human; conditions: NCI/ADR-RES cells; read-out: IC50, NCI/ADR-RES
Answers are plain numbers, in nM.

Kindly give each listed record's IC50.
1. CON([C@H]1CC[C@@]2(C)[C@H](CC[C@@H]3[C@@H]2CC[C@]2(C)[C@@H](C4=CC(=O)OC4)CC[C@]32O)C1)[C@H]1O[C@@H](CO)[C@H](O)[C@H](O)[C@@H]1O [17β, L-alloside]
2. CON([C@H]1CC[C@@]2(C)[C@H](CC[C@@H]3[C@@H]2CC[C@]2(C)[C@@H](C4=CC(=O)OC4)CC[C@]32O)C1)[C@@H]1O[C@H](CO)[C@@H](O)[C@@H](O)[C@H]1O [18β, D-alloside]
3. CON([C@H]1CC[C@@]2(C)[C@H](CC[C@@H]3[C@@H]2CC[C@]2(C)[C@@H](C4=CC(=O)OC4)CC[C@]32O)C1)[C@H]1C[C@@H](O)[C@@H](O)[C@@H](CO)O1 [9β, 2-deoxy-D-galactoside]

1: 160; 2: 800; 3: 900
